Assay: chemical genetic growth profiling, strain panel (AID 1159580);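 further: tested at 20 µM; growth read once vehicle control cultures reached saturation at 30 °C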
Settings: S. cerevisiae deletion strains, growth OD, locus YLR039C, strain RIC1, stronger effect = lower value
Out of some 5,500 compounds screened, about 2,000 (36%) were called active. Not shown: some 18% with an inconclusive outcome. Some of the results follow.
normalized growth strictly less than 1 = Fulfilled. Otherwise Not fulfilled.

Cc1cscc1S(=O)(=O)c1ccc(Cl)cc1; Fulfilled
Cc1cc(O)c(C=O)c2c1C(=O)Oc1c(COC(=O)/C=C/C(=O)O)c(O)c(C(=O)O)c(C)c1O2; Fulfilled
N#Cc1cccc(Cn2c(=O)oc3ccccc32)c1; Not fulfilled
CCCCC[C@H](CC(=O)NO)C(=O)N[C@H](C(=O)N1CCC[C@H]1CO)C(C)C; Fulfilled
C=C1C2=CC(=O)O[C@@H](c3ccoc3)[C@]2(C)CCC1[C@@]1(C)C=CC(=O)C(C)(C)[C@@H]1CC(=O)OC (some centres undefined); Not fulfilled
CC1=C2[C@H]3OC(=O)[C@@H](C)[C@@H]3CC[C@@]2(C)C=CC1=O; Not fulfilled
COc1cc(C(=O)O)c2c(c1C)OC(=O)c1c(C)cc(O)c(C=O)c1O2; Fulfilled
NC(N)=NCCC[C@@H](NC(=O)[C@@H](N)Cc1ccc(O)cc1)C(=O)O; Not fulfilled
CC(C)CCCC(C)C1CCC2C3CC[C@H]4CCCC[C@]4(C)C3CC[C@]12C (some centres undefined); Fulfilled
O=c1cc(-c2ccccc2)oc2c(O)c(O)ccc12; Fulfilled

Task: Problem: For the compound `O=C(Nc1ccccc1)Nc1ccc(C(F)(F)F)cc1Br` , is normalized growth under 1?
Output: Fulfilled

Task: // query: `COc1ccc(-c2ccc(C=C(C#N)C#N)s2)cc1`
Output: Fulfilled

Task: Try `COc1cc2c(cc1-c1cc3cc4ccoc4cc3oc1=O)OCO2` next.
Output: Fulfilled

Task: Next record, please: `Cc1nc2ccccn2c(=O)c1CCN1CCC(C(=O)c2ccc(F)cc2)CC1`
Output: Not fulfilled

Task: Okay, and CC(CCC(=O)O)[C@H]1CCC2C3C[C@H](O)[C@@H]4C[C@H](O)CC[C@]4(C)C3CC[C@@]21C (some centres undefined) ?
Output: Not fulfilled

Task: Another: C[C@@H]1O[C@@H](O[C@H]2C[C@@H](O)[C@]3(CO)C4C(CC[C@]3(O)C2)[C@@]2(O)CC[C@H](C3=CC(=O)OC3)[C@@]2(C)C[C@H]4O)[C@H](O)[C@H](O)[C@H]1O (some centres undefined)
Output: Not fulfilled

Task: Request: `Cc1cc(=O)oc2c(O)c(O)ccc12`
Output: Fulfilled
